# Lookup of reported No. Donors with pMHC specific T tells keyed by entry
Tested on: CD8+ T cells of HLA-A02:01-positive human donors
Assay type: cell-based
experimental.setup: PBMCs from three HLA-A02:01-positive human donors; pMHC multimer positive CD8+ T cells

entry.sequence | No. Donors with pMHC specific T tells
FLLPSLATV | 2
FGDDTVIEV | 3
KLNDLCFTNV | 2
GLTVLPPLL | 1
LLLDRLNQL | 1
FLFLTWICL | 2
